Listing of recorded color density of spot by entry.
Target: Horseradish peroxidase (Armoracia rusticana)
Sequence (P00433 31-353): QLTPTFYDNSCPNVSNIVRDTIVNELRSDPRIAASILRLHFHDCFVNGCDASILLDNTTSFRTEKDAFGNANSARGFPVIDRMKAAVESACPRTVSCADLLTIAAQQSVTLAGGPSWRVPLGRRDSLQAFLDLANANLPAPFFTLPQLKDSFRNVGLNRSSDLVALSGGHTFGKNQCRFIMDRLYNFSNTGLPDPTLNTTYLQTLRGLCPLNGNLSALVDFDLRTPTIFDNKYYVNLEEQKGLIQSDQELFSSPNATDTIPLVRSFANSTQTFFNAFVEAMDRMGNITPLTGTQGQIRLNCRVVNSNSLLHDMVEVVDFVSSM
Assay: Comparison of substrates for HRP detection on membranes, reflectance densitometer
Format: biochemical
Settings: Nitrocellulose membrane; amount of HRP 0.3 ng; substrate 2 mg/mL, approximately three minutes
Experimental: Horseradish peroxidase was diluted serially in 10-fold steps in a buffer containing 51 mM phosphate, 24 mM citrate, pH 5.0. Spot volumes of 1 μL of each stock were applied to either nitrocellulose (0.45 micron, Schleicher and Schuell) or IMMUNODYNE™ nylon immunoaffinity membrane (5 micron, Pall). […] The colored spots were quantitated with a reflectance densitometer (Gretag model 183). […]

Check out these entries, answers already filled in.
>>> print(df.to_string())
                                   compound       measurement_name               result
0                           Cc1ccc(N)c(N)c1  color density of spot  .09 arbitrary units
1  Cc1cc(-c2cc(C)c(N)c(C)c2)cc(C)c1N [TMB, 3,3',5,5'-tetramethylbenzidine, reference compound]  color density of spot  .04 arbitrary units
2                        Nc1cc(Cl)c(Cl)cc1N  color density of spot  .10 arbitrary units
3                            Nc1ccc(Cl)cc1N  color density of spot  .26 arbitrary units
4  Nc1ccc(-c2ccc(N)c(N)c2)cc1N [DAB, 3,3'-diaminobenzidine, reference compound]  color density of spot  .04 arbitrary units

API: the following record is the query input.
Test system Horseradish peroxidase (Armoracia rusticana); read-out color density of spot; what value for `Cc1cc(N)c(N)cc1C` ?
.11 arbitrary units

* * *

target: Horseradish peroxidase (Armoracia rusticana); assay: Comparison of substrates for HRP detection on membranes, reflectance densitometer; format: biochemical; conditions: Nitrocellulose membrane; amount of HRP 3 ng; substrate 2 mg/mL, approximately three minutes
measurement.name: color density of spot

Fill in the blank: the reported color density of spot of Nc1ccc(-c2ccc(N)c(N)c2)cc1N [DAB, 3,3'-diaminobenzidine, reference compound] is ____.
.22 arbitrary units

Given the entry Nc1cc(Cl)c(Cl)cc1N [4,5-Dichloro-1,2-phenylenediamine] , report its measured color density of spot.
.31 arbitrary units

Bench note: what color density of spot did Cc1cc(N)c(N)cc1C [4,5-Dimethyl-1,2-phenylenediamine] show?
.22 arbitrary units

State the recorded color density of spot for this entry: Nc1ccc(Cl)cc1N [4-Chloro-1,2-phenylenediamine]
.55 arbitrary units

Given the compound Cc1ccc(N)c(N)c1 [DAT, 3,4 Diaminotoluene] , what is its reported color density of spot?
.10 arbitrary units

Recorded color density of spot of Cc1cc(-c2cc(C)c(N)c(C)c2)cc(C)c1N [TMB, 3,3',5,5'-tetramethylbenzidine, reference compound] , please.
.08 arbitrary units
